# test_target: Jun bZIP R259A;Fos bZIP R157A (human;human, UniProt P05412;P01100 252-315;137-200, R259A|R157A)
# Sequence (P05412 252-315 R259A, chain 1 of 2): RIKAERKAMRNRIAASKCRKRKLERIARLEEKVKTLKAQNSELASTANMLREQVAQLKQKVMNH
# Sequence (P01100 137-200 R157A, chain 2 of 2): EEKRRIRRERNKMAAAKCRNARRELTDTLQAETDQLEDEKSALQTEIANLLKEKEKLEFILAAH
# test_summary: ITC
pKd: −log10 of the molar value.
endpoint_label: pKd

In [3]: df
Out[3]:
                                     binder  endpoint_label  meas_value
0  TRE duplex 15-mer (dsDNA) DNA 1: CGCGTGACTCACCCC DNA 2: GGGGTGAGTCACGCG             pKd        5.52
